The reported numbers originate from patent US7589097B2.

Catalogue of melting point readings, one per entry.
Counter-ions that a name gives are not always drawn.
measurement-kind: melting point

{"compound": "Nc1nc(-c2cccs2)c2nnn(Cc3ccccc3F)c2n1 [Example 35]", "endpoint-result": "174 to 174.2 °C"}
{"compound": "CC(C)c1cc(Cn2nnc3c(-c4ccco4)nc(N)nc32)ccc1[N+](=O)[O-] [Example 187]", "endpoint-result": "191.7 to 191.9 °C"}
{"compound": "COCc1cccc(Cn2nnc3c(-c4ccco4)nc(N)nc32)n1 [Example 112]", "endpoint-result": "190.4 to 191.4 °C"}
{"compound": "Cc1ccc(-c2nc(N)nc3c2nnn3Cc2cc(N)ccc2F)o1 (as salt: hydrochloride) [Example 84]", "endpoint-result": "235.8 to 236.5 °C"}
{"compound": "Nc1nc(-c2ccco2)c2nnn(Cc3cc(F)ccc3N)c2n1 [Example 171]", "endpoint-result": "219.3 °C"}
{"compound": "Cc1ccc(-c2nc(N)nc3c2nnn3Cc2cccc(Cl)n2)o1 [Example 81]", "endpoint-result": "229.3 to 229.4 °C"}
{"compound": "Nc1nc(-c2cncs2)c2nnn(Cc3cccc([N+](=O)[O-])c3)c2n1 [Example 45]", "endpoint-result": "190.4 to 190.8 °C"}
{"compound": "Nc1nc(-c2ccco2)c2nnn(Cc3ccc4c(c3)CCO4)c2n1 [Example 166]", "endpoint-result": "210.3 to 211.2 °C"}
{"compound": "Cc1cccc(Cn2nnc3c(-c4ccco4)nc(N)nc32)c1[N+](=O)[O-] [Example 92]", "endpoint-result": "267.9 to 268.5 °C"}
{"compound": "CNCc1cccc(Cn2nnc3c(-c4ccco4)nc(N)nc32)n1 (as salt: hydrochloride) [Example 226]", "endpoint-result": "221.4 to 221.5 °C"}
{"compound": "Cc1ccc(-c2nc(N)nc3c2nnn3Cc2c(F)cccc2F)o1 [Example 60]", "endpoint-result": "209.7 to 209.8 °C"}
{"compound": "Nc1nc(-c2ccco2)c2nnn(Cc3cccc4cccnc34)c2n1 [Example 107]", "endpoint-result": "276.4 to 277.4 °C"}
{"compound": "CC(=O)NCc1cccc(Cn2nnc3c(-c4ccco4)nc(N)nc32)n1 [Example 177]", "endpoint-result": "245.9 to 247 °C"}
{"compound": "Cc1ccc(N)c(Cn2nnc3c(-c4ccco4)nc(N)nc32)c1 [Example 104]", "endpoint-result": "249.9 to 250.5 °C"}
{"compound": "CC(C)(C)OC(=O)Oc1cc(F)c(Cn2nnc3c(-c4ccco4)nc(N)nc32)c(F)c1 [Example 148]", "endpoint-result": "259.8 to 259.9 °C"}
{"compound": "CNC(=O)c1cccc(Cn2nnc3c(-c4ccc(C)o4)nc(N)nc32)c1 [Example 67]", "endpoint-result": "252.9 to 253 °C"}
{"compound": "Nc1nc(-c2ccco2)c2nnn(CC(=O)O)c2n1 [Example 26]", "endpoint-result": "291 to 291.1 °C"}
{"compound": "Cc1ccc(-c2nc(N)nc3c2nnn3Cc2ccc([N+](=O)[O-])c(C)c2)o1 [Example 123]", "endpoint-result": "214.6 to 216.2 °C"}

* * *

Catalogue of melting point readings, one per entry.

{"molecule": "COc1ccc([N+](=O)[O-])cc1Cn1nnc2c(-c3ccco3)nc(N)nc21 [Example 66]", "melting point": "243.4 to 243.9 °C"}
{"molecule": "Nc1nc(-c2ccco2)c2nnn(Cc3cccc(Cl)c3)c2n1 [Example 27]", "melting point": "209.9 to 210.1 °C"}
{"molecule": "Cc1ccc(-c2nc(N)nc3c2nnn3Cc2ccc(N)c(C)c2)o1 [Example 124]", "melting point": "215.7 to 216.7 °C"}
{"molecule": "Nc1nc(-c2ccco2)c2nnn(Cc3cccc(CBr)n3)c2n1 [Example 218]", "melting point": "196 to 196.1 °C"}
{"molecule": "Nc1nc(-c2ccco2)c2nnn(Cc3cc(F)ccc3F)c2n1 [Example 65]", "melting point": "208.1 to 208.2 °C"}
{"molecule": "Cc1ccc(-c2nc(N)nc3c2nnn3Cc2cccc(Cl)c2)o1 [Example 62]", "melting point": "210.4 to 210.5 °C"}
{"molecule": "Cc1ccnc(Cn2nnc3c(-c4ccco4)nc(N)nc32)c1 [Example 131]", "melting point": "225.7 to 225.8 °C"}
{"molecule": "Nc1cccc(Cn2nnc3c(-c4ccccc4)nc(N)nc32)c1 [Example 151]", "melting point": "251.2 to 251.5 °C"}
{"molecule": "Nc1nc(-c2ccco2)c2nnn(CC(=O)Nc3ccccn3)c2n1 [Example 52]", "melting point": "263.8 to 264 °C"}
